Data provenance is the RNAGym collection of RNA variant scans (doi:10.1073/pnas.2313332121).

B1: TPR t1 (parent)
chain: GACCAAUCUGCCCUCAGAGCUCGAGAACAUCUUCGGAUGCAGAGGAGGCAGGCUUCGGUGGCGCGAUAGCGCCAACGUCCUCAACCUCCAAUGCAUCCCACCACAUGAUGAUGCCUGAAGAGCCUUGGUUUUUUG

- Variants of: B1
- Experimental details: polymerase ribozyme fitness, log enrichment relative to wild type (log ratio); higher = more active; in vitro selection for triplet polymerase activity
Measured polymerase ribozyme fitness (log ratio) accompanies every entry in the list below.
Metric name: polymerase ribozyme fitness (log ratio)

INSERT INTO assay_data (variant_string, observed) VALUES
  ('G35A G48A G71A C89A C99A C101U', -7.55),
  ('A27C G61A', -4.32),
  ('U9C G17A A18G G113U', -4.74),
  ('C56G C62U', 0.102),
  ('U78C U92C U96C U106A', -1.75),
  ('C12A A29U C86A', -2.52),
  ('C73U G117U', -1.43),
  ('G45A G51A', -3.66),
  ('U7G C22U G42A G47C G60C U87G U92C', -7.02),
  ('C70G U125G', -4.85),
  ('C11G G52U C56G C102U A103C', -6.01),
  ('G69C U78G C102U G110A', -6.81),
  ('C13A C56U C80A', -2.82),
  ('U32C G42U', -2.17),
  ('G10U C13G C80U G135U', -1.95),
  ('U55A C56G C89U C124A', 0.651),
  ('A6U G45A G52A A75U', -0.0939),
  ('C56A C115A U126C', -1.19),
  ('A2C C73U', -1.65),
  ('C20A A27U A43U', -5.37),
  ('G23A C82G', -5.43),
  ('C3U G61U U78G U92G G120A G127U', -2.24),
  ('G39U G45U C72A', -2.22),
  ('G45U G52U G61C', -2.32),
  ('C53U U132A', -0.215),
  ('C13U G71U U78C', 0.0986),
  ('A27U G44C G47C U112A', -3.34),
  ('C98A G120U', -4.6),
  ('C4G C13U C53U C115G A121U', 0.995),
  ('C12U C15U A46C G47A G69C A100G C101U G113U C123G', -7.1),
  ('A5U G47U A121U C124U', 0.495),
  ('C13U G51C C85A C124G', -3.2),
  ('U7C C85G U87C', -1.57),
  ('C13U C40U G48U G110A G117U A118U', -4.23),
  ('C34A A37U G69C G120A', -5.05),
  ('G10C A16G A26U C72U C98U C115G', -6.74);
